The following molecules are shown together with reported LC50 (lethal concentration 50%) values.
system: Panel renal (Carcinoma cell lines); experiment: cells; type: functional; conditions: Homo sapiens, time 48 hrs
Description: Growth inhibition of human Panel renal (Carcinoma cell lines) incubated for 48 hrs by sulforhodamine B assay
Remember to put the unit after the number in your answer.

>  <smiles-entry>
CN1CCN(CCCOc2cccc3nc(Nc4cc(Cl)cc(Cl)c4)ccc23)CC1

>  <LC50 (lethal concentration 50%)>
17.1 µM

$$$$
>  <smiles-entry>
CN1CCN(CCCOc2cccc3nc(Nc4ccc(F)c(F)c4)ccc23)CC1

>  <LC50 (lethal concentration 50%)>
18.9 µM

$$$$
>  <smiles-entry>
CN1CCN(CCCOc2cccc3nc(Nc4ccc(Cl)c(F)c4)ccc23)CC1

>  <LC50 (lethal concentration 50%)>
19.8 µM

$$$$

Recorded LC50 (lethal concentration 50%) (molecule CN1CCN(CCCOc2cccc3nc(Nc4ccc(Cl)c(C(F)(F)F)c4)ccc23)CC1 ): 6.46 µM

Recorded LC50 (lethal concentration 50%) (molecule CN1CCN(CCCOc2cccc3nc(Nc4cccc(Cl)c4)ccc23)CC1 ): 17.4 µM
